Experimental Details: physchem
Study Conditions: 37 °C, pH 3, aqueous buffer, thermodynamic from solid
Test Readout: solubility (µg/mL)
Give just the numeric value; µg/mL need not be written.

solubility reading for O=[N+]([O-])c1cn2c(n1)OC[C@@H](OCc1ccc(OC(F)(F)F)cc1)C2 [PTM, Pretomanid] : 17.8

---

Experimental Details: physchem
Study Conditions: 37 °C, pH 6.5, aqueous buffer, thermodynamic from solid
Test Readout: solubility (µg/mL)
Give just the numeric value; µg/mL need not be written.

solubility reading for O=[N+]([O-])c1cn2c(n1)OC[C@@H](OCc1ccc(OC(F)(F)F)cc1)C2 : 16.2

---

Experimental Details: physchem
Study Conditions: 37 °C, pH 6.5, fassif, thermodynamic from solid
Test Readout: solubility (µg/mL)
Give just the numeric value; µg/mL need not be written.

solubility reading for O=[N+]([O-])c1cn2c(n1)OC[C@@H](OCc1ccc(OC(F)(F)F)cc1)C2 [PTM, Pretomanid] : 53.8

---

Experimental Details: physchem
Study Conditions: pH 6.5, aqueous buffer, kinetic from dmso stock
Test Readout: solubility
Lab note: write values as number then unit, every time.

solubility reading for O=[N+]([O-])c1cn2c(n1)OC[C@@H](OCc1ccc(OC(F)(F)F)cc1)C2 : 166 µg/mL

---

Experimental Details: physchem
Study Conditions: 37 °C, pH 5, aqueous buffer, thermodynamic from solid
Test Readout: solubility (µg/mL)
Give just the numeric value; µg/mL need not be written.

solubility reading for O=[N+]([O-])c1cn2c(n1)OC[C@@H](OCc1ccc(OC(F)(F)F)cc1)C2 [PTM, Pretomanid] : 16.8

---

Experimental Details: physchem
Study Conditions: 37 °C, pH 5.8, fessif, thermodynamic from solid
Test Readout: solubility (µg/mL)
Give just the numeric value; µg/mL need not be written.

solubility reading for O=[N+]([O-])c1cn2c(n1)OC[C@@H](OCc1ccc(OC(F)(F)F)cc1)C2 [PTM, Pretomanid] : 108

---

Experimental Details: physchem
Study Conditions: pH 5.8
Test Readout: solubility

solubility reading for O=[N+]([O-])c1cn2c(n1)OC[C@@H](OCc1ccc(OC(F)(F)F)cc1)C2 : ~110 µg/mL

---

Experimental Details: physchem
Study Conditions: pH 6.5, fassif, kinetic from dmso stock
Test Readout: solubility (mg/mL)
Give just the numeric value; mg/mL need not be written.

solubility reading for O=[N+]([O-])c1cn2c(n1)OC[C@@H](OCc1ccc(OC(F)(F)F)cc1)C2 : 0.308

---

Experimental Details: physchem
Study Conditions: 37 °C, pH 1.6, simulated gastric fluid, thermodynamic from solid
Test Readout: solubility (µg/mL)
Give just the numeric value; µg/mL need not be written.

solubility reading for O=[N+]([O-])c1cn2c(n1)OC[C@@H](OCc1ccc(OC(F)(F)F)cc1)C2 : 15.2
